Each record here notes measured furin cleavage Z-score.
# Assay Target: furin, P09958;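 also: purified furin at 1:10 enzyme:substrate in 50 mM HEPES pH 7.5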
# Sequence (P09958 whole entry): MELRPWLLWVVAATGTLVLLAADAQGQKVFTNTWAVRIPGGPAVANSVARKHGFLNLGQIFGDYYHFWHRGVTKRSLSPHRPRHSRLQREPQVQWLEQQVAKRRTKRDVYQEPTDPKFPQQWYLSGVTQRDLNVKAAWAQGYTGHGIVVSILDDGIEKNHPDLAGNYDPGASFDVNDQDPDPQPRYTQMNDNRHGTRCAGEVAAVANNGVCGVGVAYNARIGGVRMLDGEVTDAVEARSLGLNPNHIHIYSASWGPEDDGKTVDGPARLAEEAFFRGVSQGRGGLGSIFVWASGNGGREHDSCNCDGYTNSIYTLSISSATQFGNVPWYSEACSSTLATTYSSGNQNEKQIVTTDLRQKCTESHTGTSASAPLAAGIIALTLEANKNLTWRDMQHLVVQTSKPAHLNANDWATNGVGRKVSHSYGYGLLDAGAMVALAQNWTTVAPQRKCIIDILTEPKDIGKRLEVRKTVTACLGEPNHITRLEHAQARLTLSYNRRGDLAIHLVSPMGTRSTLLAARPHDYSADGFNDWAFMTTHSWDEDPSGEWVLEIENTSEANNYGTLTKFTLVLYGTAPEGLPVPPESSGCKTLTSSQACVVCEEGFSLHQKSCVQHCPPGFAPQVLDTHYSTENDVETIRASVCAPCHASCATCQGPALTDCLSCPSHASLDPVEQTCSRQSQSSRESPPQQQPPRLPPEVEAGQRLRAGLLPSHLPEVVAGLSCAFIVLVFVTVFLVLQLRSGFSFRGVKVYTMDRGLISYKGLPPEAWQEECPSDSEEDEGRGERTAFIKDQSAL
# Procedure Summary: furin cleavage Z-score vs untreated control; higher = more cleavage, active = 3.5 or more, inactive = 1 or less, 8 variable residues between constant flanks
# Assay Context: 15 min
Some of the results follow. How many sequences the whole screen found active is unknown.
The response must contain the number and no unit.

Ask | Please indicate furin cleavage Z-score recorded for CATTPCSGGWAGNASASA [HC1916]
Reply | -1.09

Ask | Please list furin cleavage Z-score recorded for the sequence CACWRRMKRSAGNASASA [FS-1113]
Reply | 10.5

Ask | Please give measured furin cleavage Z-score of the following entry: CADPRRRSRNAGNASASA [HC216]
Reply | 5.65

Ask | Consider the sequence CALINVRKRNAGNASASA [FS-1357] and give its recorded furin cleavage Z-score.
Reply | 2.51

Ask | Quickly give me recorded furin cleavage Z-score for CATLERRKRSAGNASASA [FS-1172]
Reply | 9.64

Ask | Fill in furin cleavage Z-score for record CALGIRSFRNAGNASASA [TR6]
Reply | 1.8

More entries:
Ask | Write down furin cleavage Z-score measured for item CALSGWFTAGAGNASASA [HC1644]
Reply | -0.506

Ask | Find the measured furin cleavage Z-score of CAGKELRKRSAGNASASA [FS-998] and report it.
Reply | 6.24

Ask | Report measured furin cleavage Z-score; entry is CAKGGRKPARAGNASASA [HC1446]
Reply | -0.328
